- Assay Details: in vitro
- Experimental Parameters: human, liver microsomes
Property Measured: half-life at 5 min, 1 µM (h)

// solved cases for half-life at 5 min, 1 µM follow
Qu. Identify the reported half-life at 5 min, 1 µM for the following entry. Cc1ccc(-c2cc(C)c(Nc3ncc4c(n3)n(C3CCOCC3)c(=O)n4C)cn2)o1
Ans. 0.642

Qu. Identify the reported half-life at 5 min, 1 µM for the following entry. Cc1cc(-c2coc(C=O)c2)ncc1Nc1ncc2c(n1)n(C1CCOCC1)c(=O)n2C
Ans. 0.235

P: Cc1cc(-c2cnn(C)c2)ncc1Nc1ncc2c(n1)n(C1CCN(S(=O)(=O)C3CC3)CC1)c(=O)n2C
Q: Cc1cc(-c2ccnn2C)ncc1Nc1ncc2c(n1)n(C1CCOCC1)c(=O)n2C
Qu. Which record shows the lower half-life at 5 min, 1 µM: the first, P , or the second, Q ? Field: selected label. Fill in the label of the entry you choose.
Ans. P

1: Cc1cc(-c2ccc(C=O)o2)ncc1Nc1ncc2c(n1)n(C1CCOCC1)c(=O)n2C
2: Cc1cc(-c2cnn(C)c2)ncc1Nc1ncc2c(n1)n([C@H]1CCOC1)c(=O)n2C
3: Cc1cc(-c2cn[nH]c2)ncc1Nc1ncc2c(n1)n(C1CCOCC1)c(=O)n2C
4: Cc1cnc(-c2cnn(C)c2)cc1Nc1ncc2c(n1)n(C1CCOCC1)c(=O)n2C
5: Cc1cc(-c2cn(C)nc2C(F)(F)F)ncc1Nc1ncc2c(n1)n(C1CCOCC1)c(=O)n2C
Qu. Arrange the 5 entries by half-life at 5 min, 1 µM so the values rise. # the answer lists labels in the order requested
Ans. 1, 3, 5, 4, 2
(1: 0.327 h, 3: 0.963 h, 5: 1.99 h, 4: 4.81 h, 2: 28.9 h)

====

- Assay Details: in vivo
- Experimental Parameters: Sprague-Dawley, rat, iv, 5 mg/kg
Property Measured: Cmax at 24 h (ng/mL)

Qu. Identify the reported Cmax at 24 h for the following entry. Cc1cnc(-c2cnn(C)c2)cc1Nc1ncc2c(n1)n(C1CCOCC1)c(=O)n2C
Ans. 1320

Qu. Identify the reported Cmax at 24 h for the following entry. COc1ccc(-c2cc(C)c(Nc3ncc4c(n3)n(C3CCOCC3)c(=O)n4C)cn2)cc1OC
Ans. 869

Qu. Identify the reported Cmax at 24 h for the following entry. COc1ccc(-c2cc(C)c(Nc3ncc4c(n3)n(C3CCOCC3)c(=O)n4C)cn2)cn1
Ans. 1960

Qu. Identify the reported Cmax at 24 h for the following entry. Cc1cc2ncnn2cc1Nc1ncc2c(n1)n(C1CCOCC1)c(=O)n2C [AZD-7648]
Ans. 2620

Qu. Identify the reported Cmax at 24 h for the following entry. Cc1cc(-c2nc[nH]n2)ccc1Nc1ncc2c(n1)n(C1CCOCC1)c(=O)n2C
Ans. 4290

P: Cc1cc(-c2cnn(C(F)F)c2)ncc1Nc1ncc2c(n1)n(C1CCOCC1)c(=O)n2C
Q: Cc1cc(-c2ccc(C=O)o2)ncc1Nc1ncc2c(n1)n(C1CCOCC1)c(=O)n2C
Qu. Which record shows the lower Cmax at 24 h: the first, P , or the second, Q ? Field: selected label. Fill in the label of the entry you choose.
Ans. Q
(Q: 25.2 ng/mL, P: 1890 ng/mL)

====

- Experimental Target: DNA-dependent protein kinase catalytic subunit (Homo sapiens, UniProt P78527)
- Sequence (P78527 whole entry): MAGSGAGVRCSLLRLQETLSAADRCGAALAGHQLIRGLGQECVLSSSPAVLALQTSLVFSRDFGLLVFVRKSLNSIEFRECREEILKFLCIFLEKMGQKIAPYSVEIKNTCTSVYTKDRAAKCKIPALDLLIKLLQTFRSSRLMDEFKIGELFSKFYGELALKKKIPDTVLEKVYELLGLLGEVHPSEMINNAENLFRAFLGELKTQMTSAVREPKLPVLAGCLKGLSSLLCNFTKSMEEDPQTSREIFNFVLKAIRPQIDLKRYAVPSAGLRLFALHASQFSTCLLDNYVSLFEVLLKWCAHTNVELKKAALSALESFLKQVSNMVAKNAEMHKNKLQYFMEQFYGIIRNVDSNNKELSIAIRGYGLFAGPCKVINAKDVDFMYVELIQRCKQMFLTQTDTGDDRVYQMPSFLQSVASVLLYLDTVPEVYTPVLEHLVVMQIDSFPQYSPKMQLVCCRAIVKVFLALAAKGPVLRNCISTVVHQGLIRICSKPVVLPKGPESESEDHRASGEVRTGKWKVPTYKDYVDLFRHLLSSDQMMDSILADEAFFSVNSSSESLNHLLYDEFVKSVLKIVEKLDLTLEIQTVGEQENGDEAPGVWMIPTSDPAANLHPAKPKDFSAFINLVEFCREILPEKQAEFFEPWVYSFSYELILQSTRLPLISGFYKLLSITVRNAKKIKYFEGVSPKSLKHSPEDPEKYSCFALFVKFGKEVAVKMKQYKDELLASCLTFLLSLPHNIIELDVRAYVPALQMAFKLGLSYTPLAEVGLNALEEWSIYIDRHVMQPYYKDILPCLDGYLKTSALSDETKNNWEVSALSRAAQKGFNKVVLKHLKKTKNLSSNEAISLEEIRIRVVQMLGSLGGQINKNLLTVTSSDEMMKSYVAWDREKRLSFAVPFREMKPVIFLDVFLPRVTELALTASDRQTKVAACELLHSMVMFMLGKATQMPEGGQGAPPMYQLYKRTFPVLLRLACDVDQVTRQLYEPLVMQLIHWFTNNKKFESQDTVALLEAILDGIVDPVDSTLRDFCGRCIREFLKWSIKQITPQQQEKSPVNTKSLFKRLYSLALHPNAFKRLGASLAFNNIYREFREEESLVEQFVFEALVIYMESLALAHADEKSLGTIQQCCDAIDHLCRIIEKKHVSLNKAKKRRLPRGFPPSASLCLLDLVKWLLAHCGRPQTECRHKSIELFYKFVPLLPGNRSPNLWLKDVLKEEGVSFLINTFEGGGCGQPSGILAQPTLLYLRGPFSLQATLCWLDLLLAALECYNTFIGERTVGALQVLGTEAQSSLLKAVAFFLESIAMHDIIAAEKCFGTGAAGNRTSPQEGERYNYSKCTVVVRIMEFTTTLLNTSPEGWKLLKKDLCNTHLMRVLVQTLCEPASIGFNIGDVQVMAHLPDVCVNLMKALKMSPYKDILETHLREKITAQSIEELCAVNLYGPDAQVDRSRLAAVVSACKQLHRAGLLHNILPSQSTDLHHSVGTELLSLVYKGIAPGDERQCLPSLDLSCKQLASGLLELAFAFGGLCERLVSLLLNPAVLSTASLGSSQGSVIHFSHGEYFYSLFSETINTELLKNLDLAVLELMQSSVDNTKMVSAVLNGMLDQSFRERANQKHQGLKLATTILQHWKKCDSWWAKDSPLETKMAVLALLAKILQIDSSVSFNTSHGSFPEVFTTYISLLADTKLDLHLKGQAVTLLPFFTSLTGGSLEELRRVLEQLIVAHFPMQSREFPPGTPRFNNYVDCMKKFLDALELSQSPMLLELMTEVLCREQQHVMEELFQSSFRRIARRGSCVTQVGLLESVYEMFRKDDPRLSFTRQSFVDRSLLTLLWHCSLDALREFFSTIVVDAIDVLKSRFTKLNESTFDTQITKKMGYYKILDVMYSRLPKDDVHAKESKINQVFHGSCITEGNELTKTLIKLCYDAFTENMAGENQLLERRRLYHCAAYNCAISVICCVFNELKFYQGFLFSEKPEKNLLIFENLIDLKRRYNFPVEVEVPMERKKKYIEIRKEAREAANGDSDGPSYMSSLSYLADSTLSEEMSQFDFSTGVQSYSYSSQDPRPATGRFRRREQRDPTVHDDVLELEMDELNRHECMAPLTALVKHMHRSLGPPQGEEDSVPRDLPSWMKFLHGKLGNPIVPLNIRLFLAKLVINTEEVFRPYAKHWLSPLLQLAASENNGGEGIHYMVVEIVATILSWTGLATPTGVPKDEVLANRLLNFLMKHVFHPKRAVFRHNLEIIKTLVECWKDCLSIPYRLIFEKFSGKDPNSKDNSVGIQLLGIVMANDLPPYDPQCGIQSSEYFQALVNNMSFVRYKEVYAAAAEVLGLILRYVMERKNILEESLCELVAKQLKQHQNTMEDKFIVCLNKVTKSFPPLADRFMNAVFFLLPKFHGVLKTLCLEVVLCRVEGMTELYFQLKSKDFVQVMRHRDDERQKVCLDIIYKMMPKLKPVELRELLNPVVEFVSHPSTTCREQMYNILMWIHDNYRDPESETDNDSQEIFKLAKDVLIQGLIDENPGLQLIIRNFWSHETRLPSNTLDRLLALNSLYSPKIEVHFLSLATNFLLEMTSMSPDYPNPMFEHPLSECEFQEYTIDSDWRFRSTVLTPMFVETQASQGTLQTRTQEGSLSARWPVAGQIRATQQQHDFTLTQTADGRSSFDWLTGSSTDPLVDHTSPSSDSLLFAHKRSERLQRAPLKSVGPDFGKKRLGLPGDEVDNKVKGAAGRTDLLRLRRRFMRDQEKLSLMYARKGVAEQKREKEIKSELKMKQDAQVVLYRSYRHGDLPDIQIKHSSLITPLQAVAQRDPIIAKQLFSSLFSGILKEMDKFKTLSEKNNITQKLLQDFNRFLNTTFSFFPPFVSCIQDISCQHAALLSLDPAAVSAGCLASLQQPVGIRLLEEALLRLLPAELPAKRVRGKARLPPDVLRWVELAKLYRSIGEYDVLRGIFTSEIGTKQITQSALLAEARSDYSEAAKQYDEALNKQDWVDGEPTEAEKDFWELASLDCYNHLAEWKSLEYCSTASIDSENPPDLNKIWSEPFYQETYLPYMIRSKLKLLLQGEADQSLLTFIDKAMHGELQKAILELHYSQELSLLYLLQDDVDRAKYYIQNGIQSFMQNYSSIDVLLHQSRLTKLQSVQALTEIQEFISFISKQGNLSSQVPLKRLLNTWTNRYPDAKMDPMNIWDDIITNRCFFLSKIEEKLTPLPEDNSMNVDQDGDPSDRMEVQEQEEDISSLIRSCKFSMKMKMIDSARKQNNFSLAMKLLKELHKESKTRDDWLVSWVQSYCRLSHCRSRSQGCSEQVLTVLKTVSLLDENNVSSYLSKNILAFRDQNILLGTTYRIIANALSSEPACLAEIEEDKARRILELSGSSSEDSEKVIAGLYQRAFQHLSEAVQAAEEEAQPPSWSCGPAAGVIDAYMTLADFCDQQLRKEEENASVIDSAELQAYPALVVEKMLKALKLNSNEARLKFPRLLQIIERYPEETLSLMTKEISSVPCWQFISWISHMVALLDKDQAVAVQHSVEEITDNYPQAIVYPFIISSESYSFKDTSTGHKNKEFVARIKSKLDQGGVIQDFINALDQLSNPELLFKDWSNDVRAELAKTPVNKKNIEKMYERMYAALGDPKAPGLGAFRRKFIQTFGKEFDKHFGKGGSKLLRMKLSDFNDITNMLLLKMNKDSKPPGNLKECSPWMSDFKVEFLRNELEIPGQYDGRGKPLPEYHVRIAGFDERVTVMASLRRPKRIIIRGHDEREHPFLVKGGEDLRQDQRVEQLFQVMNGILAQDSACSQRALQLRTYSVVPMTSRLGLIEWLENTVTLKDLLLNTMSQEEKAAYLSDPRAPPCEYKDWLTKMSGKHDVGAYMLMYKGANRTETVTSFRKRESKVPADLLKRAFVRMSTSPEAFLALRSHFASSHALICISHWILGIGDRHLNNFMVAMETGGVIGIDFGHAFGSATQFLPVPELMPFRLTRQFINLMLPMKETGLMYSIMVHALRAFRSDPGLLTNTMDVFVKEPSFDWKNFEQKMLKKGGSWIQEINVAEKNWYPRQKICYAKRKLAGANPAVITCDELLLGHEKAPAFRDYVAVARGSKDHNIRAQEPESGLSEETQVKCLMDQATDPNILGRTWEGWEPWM
Property Measured: IC50 (nM)

// solved cases for IC50 follow
Qu. Identify the reported IC50 for the following entry. Cc1cc(-c2cccs2)ncc1Nc1ncc2c(n1)n(C1CCOCC1)c(=O)n2C
Ans. 0.1

Qu. Identify the reported IC50 for the following entry. COc1cncc(-c2ccc(Nc3ncc4c(n3)n(C3CCOCC3)c(=O)n4C)c(C)n2)c1
Ans. 5.3

Qu. Identify the reported IC50 for the following entry. COc1ccc2c(c1)CCN2c1ncc2c(n1)n(C1CCOCC1)c(=O)n2C
Ans. 6

I: Cc1cc(-c2cn(C)nc2C)ncc1Nc1ncc2c(n1)n(C1CCOCC1)c(=O)n2C
II: CC(=O)c1ccc2c(c1)CCN2c1ncc2c(n1)n(C1CCOCC1)c(=O)n2C
III: Cn1c(=O)n(C2CCOCC2)c2nc(N3CCc4cc(C#N)ccc43)ncc21
IV: Cc1cc(-c2cn[nH]c2)ncc1Nc1ncc2c(n1)n(C1CCOCC1)c(=O)n2C
V: Cc1cc(-c2cn(C)nc2C(F)(F)F)ncc1Nc1ncc2c(n1)n(C1CCOCC1)c(=O)n2C
Qu. Put the entries in order of IC50, starting with the largest number. # the answer lists labels in the order requested
Ans. III, I, V, II, IV
